ASSAY: Circular dichroism (CD) analysis of alpha-helicity
Assay type: physicochemical
CONDITION_DETAILS: difference 50% TFE minus benign
Bridge positions count the residues as written; N and C are the ends. Square brackets hold non-standard residues; d marks the D form. Peptide text beside a SMILES is read from it. R8 = C=CCCCCCC[C@@](C)(N)C(=O)O; S5 = C=CCCC[C@](C)(N)C(=O)O; Nle = CCCC[C@H](N)C(=O)O
ENDPOINT: Molar Ellipticity TFE-Molar Ellipticity Benign (deg cm^2 dmol^−1)
Supply the numeric figure in deg cm^2 dmol^−1, leaving out any unit text.

Reported Molar Ellipticity TFE-Molar Ellipticity Benign for CCCC[C@H](NC(=O)[C@H](CCC(N)=O)NC(=O)[C@H](CCC(N)=O)NC(=O)[C@]1(C)CCCC=CCCCCCC[C@@](C)(NC(=O)[C@H](Cc2ccccc2)NC(C)=O)C(=O)N[C@@H](C)C(=O)N[C@@H](Cc2ccc(O)cc2)C(=O)N[C@@H](Cc2c[nH]c3ccccc23)C(=O)N[C@@H]([C@@H](C)O)C(=O)N[C@@H](C)C(=O)N[C@@H](CC(C)C)C(=O)N1)C(=O)N[C@@H](C(N)=O)C(C)C [compound 41] (Ac-F[R8]AYWTAL[S5]QQ[Nle][dV]-NH2; staple 2-9) was 20410.4
